Please go through the items and note down their self-cleavage.
B1: CPEB3 Ribozyme (parent)
chain: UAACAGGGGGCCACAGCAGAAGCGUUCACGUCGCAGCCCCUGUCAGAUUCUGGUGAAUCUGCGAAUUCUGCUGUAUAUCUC

- Variants of: B1
- assay.procedure: self-cleavage, relative activity (ratio to wild type); higher = more cleavage; in vitro, sequencing
// keep it numeric: no unit symbol after the value

// returns reported self-cleavage for input UAACAGGGGGCUACAGCAGAAGCGUACACGUCGCAGCCCCUGUCAGAUUCUGGUGAAUCUGCGAAUUCUGCUGUAUAUCUC [C12U U26A]
1.19

# get_value(readout='self-cleavage', item= UAACAGGGGGCCACAGCAGAAGCGUUCACGUCGCAGCCCCUGUCAGAUUCUGGUGAAUCUGCGAAGUCUGCUGUAUAUCCC [U66G U80C] )
0.54

State the recorded self-cleavage for this entry: UAACAGGGGGCCACAGCAGAAGCGUUCACGUCGCAGCCCCUGUCAGUUUCUGGUGAAUCGGCGAAUUCUGCUGUAUAUCUC [A47U U60G]
0.29

Give the measured self-cleavage of UAACAGGGGGCCACAGCUGAAGCGUUCACGUCACAGCCCCUGUCAGAUUCUGGUGAAUCUGCGAAUUCUGCUGUAUAUCUC [A18U G33A] .
0.3

Look at this variant and give its reported self-cleavage. UAACAGGGGGCCACAGCAGGAGCGAUCACGUCGCAGCCCCUGUCAGAUUCUGGUGAAUCUGCGAAUUCUGCUGUAUAUCUC [A20G U25A]
0.27

# get_value(readout='self-cleavage', item= UAACAGGGGGCCACAGCUGAAGCGUUCACGUCGCAGCCCCUGUCAUAUUCUGGUGAAUCUGCGAAUUCUGCUGUAUAUCUC [A18U G46U] )
0.2

Looking for the measured self-cleavage of UAACAGGGGGCCACAGCAGAAGCGUUCACGUCGCAGCCCCUGUCAGAUACUGGUGAUUCUGCGAAUUCUGCUGUAUAUCUC [U49A A57U] , can you help?
0.4

What value of measured self-cleavage is listed for UAACAGGGGGCCACAGCAGAAGCGUUCACGUCGCAGCCACUGUCAGAUUCUGGUGAAUCGGCGAAUUCUGCUGUAUAUCUC [C39A U60G] ?
0.09

// returns reported self-cleavage for input UAACAGGGGGCCACAGCAGAAGUGUUCACGUCGCAGCCCCUGGCAGAUUCUGGUGAAUCUGCGAAUUCUGCUGUAUAUCUC [C23U U43G]
0.11

What does the record list as self-cleavage for UAACAGGGGGCCACAGCAGAAGCGUUCACGUCGCAGUCCCUGUCAGAUUCUGGUGAAUCUGCAAAUUCUGCUGUAUAUCUC [C37U G63A] ?
0.54

For the variant UAACAGGGGGCCACUGCAGAAGCGUUCACGUCGCAGCCCCUGUCAGAUUCUGGUGAAUCUGCGAAUUCCGCUGUAUAUCUC [A15U U69C] , what self-cleavage is on record?
0.35

Quick check: self-cleavage of UAACAGGGGGCCACAGCAGAAGCGUUUAAGUCGCAGCCCCUGUCAGAUUCUGGUGAAUCUGCGAAUUCUGCUGUAUAUCUC [C27U C29A] ?
0.15

Consider the variant shown here: UAACAGGGGGCCACAGAAGAAGCGUUCACGUCGCAGCCCCUGUCAGAUUCUGGUGAAUCUGCGAAUUCUGCGGUAUAUCUC [C17A U72G] What is its recorded self-cleavage?
0.16

// returns reported self-cleavage for input UAACAGGGGGCCACAGCAGAAGCGUUCACGUCGCAGCCCCUGACAGAUUCUGGUGAAUCUGCGAAAUCUGCUGUAUAUCUC [U43A U66A]
0.69

Look at this variant and give its reported self-cleavage. CAACAGGGGGCCACAGCAGAAGCGUUCACGUCGCAGCCCCUGUCGGAUUCUGGUGAAUCUGCGAAUUCUGCUGUAUAUCUC [U1C A45G]
0.81

Requested field: self-cleavage. Item: UAACAGGGGGCCACAGCAGAAGCGCUCACGUCGCAGCCCCUGUCAGAUUCUGGUGAAUCUGCGUAUUCUGCUGUAUAUCUC [U25C A64U]
0.26

I have this variant here, UAACAGGGGGCCACAGCAGAAGCGGUCACGUCGCAGCCCCUGUCAGAUUCUGGUGAAUCUGCGAAUUCUGCCGUAUAUCUC [U25G U72C] , and I need its recorded self-cleavage.
0.26

Recorded self-cleavage of UAACAGGGGGCCACAGCAGAAGCGUUCACGUCGCAGCCCCUGUCAGAUUCUGGUGAAUCUGCUAAUUCUGCUGUUUAUCUC [G63U A75U] , please.
1.2

// query self-cleavage value for entry UAACAGGGGGCCACAGCAGAAGCGUUCACGGCGCAGCCCCUGUCAGAUACUGGUGAAUCUGCGAAUUCUGCUGUAUAUCUC [U31G U49A]
0.34

Look at this variant and give its reported self-cleavage. UAACAGGGGGCCACAGCAGAAGCGUUCACGUAGCAGCCCCUGUCAGAUUCCGGUGAAUCUGCGAAUUCUGCUGUAUAUCUC [C32A U51C]
0.29

Which self-cleavage reading was recorded for the variant UAACAGGGGGCCACAGCAGAAGAGUUCACGUCGCAUCCCCUGUCAGAUUCUGGUGAAUCUGCGAAUUCUGCUGUAUAUCUC [C23A G36U] ?
0.25

Need self-cleavage of UAACAGGGGGCCACAGCAGAAGCGUUCACGCCGCAGCCCCUGUCAGAUUCUGGUGAAUCUGCGAACUCUGCUGUAUAUCUC [U31C U66C] , thanks.
0.27

Reported self-cleavage for UAACAGGGGGCCACAGCAGUAGCGUUCACUUCGCAGCCCCUGUCAGAUUCUGGUGAAUCUGCGAAUUCUGCUGUAUAUCUC [A20U G30U] : what is it?
0.24

# input variant: UAACAGGGGGCCACAGCAAAAGCGUUCACGUCGCAGCCCCCGUCAGAUUCUGGUGAAUCUGCGAAUUCUGCUGUAUAUCUC [G19A U41C] ; wanted: its self-cleavage
0.22

Given UAACAGGGGGCCACAGCAGAAGCGUUCACGUCGCAGCCCCUGUCAGAUUUUGGUGAAUCUGCGAAUUCCGCUGUAUAUCUC [C50U U69C] , state its recorded self-cleavage.
0.41

Query (variant): UAACAGGGGGCCACAGCAGAAGCGUUCACGUCGCAGCCCCUGUCAGGUUCUGGUGCAUCUGCGAAUUCUGCUGUAUAUCUC [A47G A56C] ; field requested: self-cleavage
0.95

Which self-cleavage is listed for UAACAGGGGGCCACAGCAGAAGCGUUCACGUCGCAGCCCCUGUCAGAUUCUGGUGAAUCUGCGAUUUCUGCUGUAUAUCAC [A65U U80A] ?
0.15

Any idea what self-cleavage was measured for UAACAGGGGGCCACAGCAGAAGCGUUCACGCCGUAGCCCCUGUCAGAUUCUGGUGAAUCUGCGAAUUCUGCUGUAUAUCUC [U31C C34U] ?
0.24

Entry UAACAGGGGGCCACAGCAGAAGCGUUCACGUCGCAGCCCCUGUCAUAUUCUGGUGAAUCUGCGAACUCUGCUGUAUAUCUC [G46U U66C] : reported self-cleavage = ?
0.16

Any idea what self-cleavage was measured for UAACAGGGGUCCGCAGCAGAAGCGUUCACGUCGCAGCCCCUGUCAGAUUCUGGUGAAUCUGCGAAUUCUGCUGUAUAUCUC [G10U A13G] ?
0.11

Any idea what self-cleavage was measured for UAACAGGGGGCCACAGCAGAAGCGUUCACGUCGCAGCCCCUGUCAGAUUCAGGUGAUUCUGCGAAUUCUGCUGUAUAUCUC [U51A A57U] ?
0.53

Given the entry UAACAGGGGGUCACAGCAGAAGCGUUCACGUCGCAGCCCCUGUCAGAUUCAGGUGAAUCUGCGAAUUCUGCUGUAUAUCUC [C11U U51A] , report its measured self-cleavage.
0.42

Would you mind telling me what self-cleavage value was observed for UAACAGGGGGCCACAGCAGAAGCGUUCACGUCGCAGCCCCUGUCAGAUUCGGGUGAACCUGCGAAUUCUGCUGUAUAUCUC [U51G U58C] ?
0.37

Quick check: self-cleavage of UAACAGGGGGCCACAGCAGAAGCGUUCACGUCGCAGCCCCUGUCAGAUUCUGGUGAAUCUGCGAAUUCUGCAAUAUAUCUC [U72A G73A] ?
1.28

Bench note: what self-cleavage did UAACAGGGGGCCACAGCAGAAGCGUUCACGUCGCAGCACCUGUCAGAUUCUGGUGAAUCUGCGAAUACUGCUGUAUAUCUC [C38A U67A] show?
0.17

Give its self-cleavage value. Item: UAACAGGGGGCCACAGCAGAAGCGUUCACGUCGCAGCCUCUGUCAGAUUCUGGUGAAUCUGCGAAUUCUGCUGAAUAUCUC [C39U U74A]
1.08

Record request: self-cleavage value, item UAACAGGGGGCCACAGCAGAAGCGUUCACGUCGCCGCCCCUGUCAGAUUCUGGUGAAUCUGCGAAUACUGCUGUAUAUCUC [A35C U67A]
0.23

Entry UAACAGGGGGCCACAGCAGAAGCGUUCACGUCGCAGCCCCUGUCAGAUUCUGGUGAAUCUGCUAAUUCUGCUGUAGAUCUC [G63U U76G] : reported self-cleavage = ?
1.17

Data request, read-out self-cleavage, for UAACAGGGGGCCACAGCAGAAGCGUUCACGUCGCAGCCCCUGUCAGAUUCUGGUGUAUCUGCGAAUUCUGCUGUAUCUCUC [A56U A77C]
0.62

# get_value(readout='self-cleavage', item= UAACAGGGGGCCACAGCAGAAGCGUUCACGUCGCUGCCCCUGUCAGAUUCUGGUGAAUCUGCGAAUCCUGCUGUAUAUCUC [A35U U67C] )
0.21

Fill blank: measured self-cleavage of the variant UAACAGGGGGCCACAGCAGAAGCGUUCACGUCGCAGCCUCAGUCAGAUUCUGGUGAAUCUGCGAAUUCUGCUGUAUAUCUC [C39U U41A] is ____.
0.25

I would be grateful if you could share the reported self-cleavage for UAACAGGGGGCCACAGCAGAAGCGUACACGUCGCAGCCCCUGUCAGGUUCUGGUGAAUCUGCGAAUUCUGCUGUAUAUCUC [U26A A47G] .
0.84

Consider the variant UAACAGGGGGCCAAAGCAGAAGCGUUCACGUCGCAGCCCCUGUCAGAUUCUGGUGAAUCUGCGAACUCUGCUGUAUAUCUC [C14A U66C] and give its measured self-cleavage.
0.4

Sample UAGCAGGGGGCCACAGAAGAAGCGUUCACGUCGCAGCCCCUGUCAGAUUCUGGUGAAUCUGCGAAUUCUGCUGUAUAUCUC [A3G C17A] — what was its self-cleavage?
0.33

Find the recorded self-cleavage belonging to UAACAGGGGGCCACAGCAGAAGCGUUCACGUCGCAGCCCCUGUCAGAUUCUGGUGGAUCCGCGAAUUCUGCUGUAUAUCUC [A56G U60C] and report it.
0.42

Give the measured self-cleavage of UAACAGGGGGCCACAGCAGAAGCGUUCACGUCGCAGCCCCUGUCAGAUUCUGGUGAAUCUGCGAAUUCUGCUGUAUAUCUG [C81G] .
1.14
